measurement kind: melting point

{"columns": ["compound", "readout value"],
 "data": [
  ["CN1C(=O)CC[C@]2(C)c3ccc(CCc4ccc5ccccc5c4)cc3CC[C@@H]12", "109 to 110 °C"],
  ["CS(=O)(=O)c1ccc(Cn2c3c(c4cc(F)cc(F)c42)CCCC(CC(=O)O)C3)cc1 (stereo not given)", "200 to 202 °C"],
  ["O=C(c1ccc(F)cc1)c1ccc2n1CCCC2C(=O)O (stereo not given)", "161 to 162 °C"],
  ["CCOC(=O)c1ccc(C(=O)c2ccc(OC)cc2)cc1", "74 to 81 °C"],
  ["CSCC(=O)C(Cc1ccc2ccccc2c1)NC(=O)C(CC(C)C)NC(=O)OCc1ccccc1 (stereo not given)", "101 to 103 °C"],
  ["COC(=O)CCc1oc(=O)[nH]c1-c1ccc(C(F)(F)F)cc1", "156 to 157 °C"]
]}

*Q* Field request: melting point | item: CCC1(CC)OC(=O)Nc2ccc(/C(=C/C#N)C(C)C)cc21
*A* 138 to 140 °C

*Q* I would be grateful if you could share the reported melting point for COc1cc2c(cc1O)/C(=N/OCc1ccc([N+](=O)[O-])cc1)CC2 .
*A* 146 to 149 °C

*Q* Entry under review: CCC1(CCCCN2CCc3sccc3C2)C(=O)Nc2ccc(Br)cc21 (stereo not given) . Reported melting point?
*A* 149 to 151 °C

*Q* Give the measured melting point of CC(C)(C)OC(=O)N1CCN(CCSc2nc3ccccc3[nH]2)CC1 .
*A* 175 to 176 °C

---

measurement kind: melting point (°C)

{"columns": ["smiles entry", "readout value"],
 "data": [
  ["O=C(N[C@@H](Cc1ccc(OCc2ccsc2)cc1)C(=O)O)c1cn2cc(-c3ccc(Cl)cc3)ccc2n1", 203],
  ["COc1ccc(OC)c(CNC(=O)n2cc(F)c(=O)[nH]c2=O)c1", 185]
]}

---

Recorded melting point by entry

Examples with answers:
{"columns": ["compound", "melting point"],
 "data": [
  ["Nc1cccc(C(F)(F)F)c1CCl", "155 to 161 °C"],
  ["O=C1OC(c2ccccc2)(c2ccccc2)C2CN(c3nc4ccccc4o3)CCN12 (stereo not given)", "260 °C"],
  ["N#Cc1cc2[nH]cc(C(=O)O)c2cc1-c1ccc(C2(CO)CC2)cc1", "271 to 272 °C"],
  ["NCc1nnc2n1-c1sc(Cl)cc1C(c1ccccc1Cl)=NC2", "190 to 192 °C"]
]}

For the next question, use this compound.
*Q* Which value of melting point has been reported for Cc1noc(-c2cc3c4ccccc4n(C)c3s2)n1 in the records?
*A* 200 to 201 °C

---

measurement kind: melting point

Some compounds with recorded melting point:
{"columns": ["compound", "melting point"],
 "data": [
  ["CC(C(N)=O)c1ccc2c(c1)oc1ccc(Cl)cc12 (stereo not given)", "210 to 211 °C"],
  ["Cc1c(N)ccc2c1C(=O)NS2(=O)=O", "272 to 273 °C"],
  ["CCCc1cc2c(cc1C(=O)c1ccc(C(O)=NO)cc1)C(C)(C)CCC2(C)C", "255 to 257 °C"],
  ["CC(C)C[C@H](NC(=O)OCC1CC=CCC1)C(=O)N[C@@H](Cc1ccccc1)C(=O)CSCc1ccco1 (stereo not given in full)", "85 to 87 °C"],
  ["CCCCc1c(/C=C/C(=O)O)cc(OC)c2ccccc12", "166 to 167 °C"],
  ["CCOC(=O)c1c[nH]c2ccc(C(=O)c3c(C)c(OC)c4ccccn34)cc2c1=O", "271 °C"],
  ["O=[N+]([O-])c1ccc(Nc2ccc(C(F)(F)C(F)(F)C(F)(F)C(F)(F)C(F)(F)C(F)(F)F)cc2)c([N+](=O)[O-])c1", "145 to 146 °C"],
  ["COc1ccc2[nH]c(SCc3nccc(SCc4ccco4)c3C)nc2c1", "106 to 108 °C"],
  ["CCn1c2ccccc2c2c(N)c(C(=O)OC)c(C)nc21", "108 to 110 °C"],
  ["CC(C)(C)OC(=O)N1C(CC2CCCCC2)C(C(O)CNS(=O)(=O)C(c2ccccc2)c2ccccc2)OC1(C)C (stereo not given)", "58 to 65 °C"]
]}

*Q* Record request: melting point value, item CSc1ccc(N)c(C(=O)O)c1
*A* 145 to 150 °C

*Q* So what's the measured melting point for this one? C=CCOc1ccccc1NC=C1C(=O)N(c2ccc(C(=O)O)cc2)N=C1C
*A* 240 °C

---

measurement kind: melting point (°C)

{"columns": ["smiles entry", "readout value"],
 "data": [
  ["CCOC(=O)c1ccc(Cn2c(NC3CCN(C(=O)OCC)CC3)nc3ccccc32)o1", 136],
  ["COc1cc(OCCCN(C)Cc2ccc(OC)c(OC)c2)ccc1NC(=O)c1cccc2c(=O)c3cccc(F)c3[nH]c12", 108]
]}

---

In this section, each of the molecules is paired with its reported melting point.

Here's what some known entries look like.
{"columns": ["molecule", "readout value"],
 "data": [
  ["CCC(CC)(CC(=O)Nc1cccc(OCc2ccc3cccc(F)c3n2)c1)C(=O)O", "128 to 129 °C"],
  ["CCc1cc(OCc2ccc(-c3ccccc3-c3nnnn3-c3ccncc3)cc2)c2ccccc2n1", "155 to 170 °C"],
  ["CCCOc1c(C=O)c(=O)n(C)c(=O)n1C", "57 to 58 °C"]
]}

*Q* Look at this molecule and give its reported melting point. CCCn1c(COCC)nc2c(N)nc3ccc(OCC(=O)N4CCOCC4)cc3c21
*A* 196 to 197 °C

*Q* Would you kindly share the measured melting point for O=c1[nH]c(-c2ccc(CCCCCl)cc2)cs1 ?
*A* 111 to 117 °C

*Q* Any idea what melting point was measured for N#CCCNC(=O)c1n[nH]cc1NC(=O)c1ccc2c(c1)CCO2 ?
*A* 206 to 207 °C

*Q* Query (molecule): CCOC(=O)CNC(=O)Oc1ccc([N+](=O)[O-])c2cccnc12 ; field requested: melting point
*A* 121 to 122 °C

*Q* # melting point lookup, item c1cn(Cc2ccc3c(c2)Cc2c(-c4ccsc4)n[nH]c2-3)nn1
*A* 250 to 254 °C

*Q* Given COc1ccc(Cn2cc[nH]c2=S)cc1F , state its recorded melting point.
*A* 156 to 157 °C

*Q* So what does the record say about melting point for CCCCS(=O)(=O)NC(=O)c1ccc(C(=O)NCCO)nc1 ?
*A* 168 to 169 °C

*Q* Any idea what its melting point is? The molecule is CCOC(=O)c1sc(Br)c2c1OCO2
*A* 93 °C

*Q* Can you share its melting point? I mean this molecule: CCCCCCCCCCOc1ccc(-c2ccc(C#CCCC(C)O)cc2)cc1 (stereo unspecified)
*A* 97 to 99 °C

*Q* Return reported melting point; argument: C=CCOc1c(C(C)=O)ccc(OCCCOc2ccc3cc(C(=O)OC)oc3c2C)c1CCC
*A* 80 to 83 °C

*Q* Using the record for CC(C)NCC(=O)Nc1ccc2c(c1)C(=O)c1cc(NC(=O)CNC(C)C)ccc1C2=O , report its melting point.
*A* 158 °C

*Q* What does the record list as melting point for N#CCCCCCC(=O)c1ccc(Cl)cc1 ?
*A* 44 to 46 °C

*Q* Which melting point reading was recorded for the molecule CCOC(=O)c1ncn2c1[C@@H]1CCN1C(=O)c1c-2ccc(F)c1Cl ?
*A* 161 to 163 °C

*Q* Entry O=C(O)c1ccc(-c2nn(Cc3cccc(Cl)c3)c(=S)[nH]2)cc1 has what melting point?
*A* 302 °C

---

# Lookup of reported melting point keyed by entry

Sample records with melting point:
{"columns": ["compound", "measurement kind", "readout value"],
 "data": [
  ["CN(C1CCCCC1)S(=O)(=O)c1ccc(CCSn2cnc3ccccc32)cc1", "melting point", "60 to 63 °C"],
  ["CCOC(=O)c1cnn2c1CCC2", "melting point", "35 to 37 °C"],
  ["CCOC(=O)C1C(=O)N(c2ccccc2)c2cc3ccoc3cc21 (stereo not given)", "melting point", "108 to 110 °C"]
]}

*Q* What does the record list as melting point for COc1ccc(-c2nc(SC(F)(F)CF)[nH]c2-c2ccc(OC)cc2)cc1 ?
*A* 144 to 145 °C

*Q* For the compound shown here, N#CCCn1nnc2cc3c(cc2c1=O)OC1CCCN1C3=O (stereo not given) , give the reported melting point.
*A* 184 to 186 °C

*Q* Which melting point value is on record for COc1cc2cc(C(=O)Nc3cc(OCc4ccccc4)c4ccccc4c3CCOC(C)=O)[nH]c2c(OC)c1OC ?
*A* 55 to 65 °C

*Q* Would you kindly share the measured melting point for COc1ccc(CCNCC(O)c2ccc(C)cc2)cc1OC (stereo not given) ?
*A* 99 to 100 °C
